Kindly state pIC50 for each of the entries shown.
# SYSTEM_NAME: HLA-A*02:01
# ASSAY_REMARKS: IEDB peptide-MHC binding, purified MHC/competitive/fluorescence; bounds were set here for any values at or beyond the usual limits of such assays
# CONDITIONS: source organism: Variola virus
Numbers only, as −log10 of the molar value.

PRIMARY_SEQUENCE	SYSTEM_NAME	READOUT_NUMBER
KVFLPNPAF	HLA-A*02:01	4.26

# context switch: different sequence, same pIC50
I would be grateful if you could share the reported pIC50 for VILSLPRIA .
5.86

====

# SYSTEM_NAME: HLA-C*15:02
# ASSAY_REMARKS: IEDB peptide-MHC binding, purified MHC/direct/fluorescence; filed as Kd, often an IC50 or EC50 that approximates it; bounds were set here for any values at or beyond the usual limits of such assays
# CONDITIONS: source organism: Homo sapiens
PROPERTY_MEASURED: Kd
Answer as a quantity: numeral, then unit.

I would be grateful if you could share the reported Kd for KTWGQYWQV .
49 nM
